# Test system: T47D
# method_summary: NCI tumour cell line growth inhibition, 48 h
Counter-ions that a name gives are not always drawn. Active and inactive are the calls of the source. Cut-off read from the data, not from the text of the source: active = GI50 up to about 1.1 µM and inactive = higher.
Provide the recorded GI50 for the entries that follow.

Data request: I am curious: what GI50 value has been reported for CN(C)c1ccc2nc(CC(O)(C(F)(F)F)C(F)(F)F)ccc2c1 ?
Data returned: > 10 µM (inactive)

Data request: I am curious: what GI50 value has been reported for O=C(O)c1ccccc1/C=N\N=C1NCCN1 ?
Data returned: > 100 µM (inactive)

Data request: I am curious: what GI50 value has been reported for CCOP(=O)(OCC)OC1c2[nH]cc(C(=O)OCc3ccccc3)c2-c2cc(C(=O)OC)[nH]c2C1OC (centres undefined) ?
Data returned: 7.91 µM (inactive)

Data request: I am curious: what GI50 value has been reported for C/C(=C\COc1cc(O)c2c(c1)C(=O)c1cc(C)cc(O)c1C2=O)CCC1OC1(C)C (centres undefined) ?
Data returned: 49.4 µM (inactive)

Data request: I am curious: what GI50 value has been reported for C[n+]1ccc2/c(=C\C#N)c3ccccc3n21 ?
Data returned: 5.65 µM (inactive)

Data request: I am curious: what GI50 value has been reported for O=C(O)CSSCC(=O)O ?
Data returned: > 100 µM (inactive)

Data request: I am curious: what GI50 value has been reported for O=C1C=C(c2ccccc2)O/C1=C\C(=O)c1ccc(Cl)cc1 ?
Data returned: 23.3 µM (inactive)

Data request: I am curious: what GI50 value has been reported for CN1CCC(CN2c3ccccc3Sc3ccccc32)C1 (centres undefined) [METHDILAZINE HYDROCHLORIDE] ?
Data returned: 15.8 µM (inactive)

Data request: I am curious: what GI50 value has been reported for Cc1ccc(-c2cc(N)n(-c3nc4c(c(=O)n(C)c(=O)n4C)n3C)n2)cc1 ?
Data returned: > 100 µM (inactive)

Data request: I am curious: what GI50 value has been reported for O=c1c2c(nc3[nH]ccn13)CCCC2 ?
Data returned: > 10 µM (inactive)

Data request: I am curious: what GI50 value has been reported for CN1CCN(C(=S)N(C(=O)c2ccco2)c2ccccc2)CC1 ?
Data returned: > 100 µM (inactive)

Data request: I am curious: what GI50 value has been reported for C/C(=N\NC(=S)Nc1ccc(Cl)cc1)c1nc2cccnc2[nH]1 ?
Data returned: 3.37 µM (inactive)

Data request: I am curious: what GI50 value has been reported for O=[N+]([O-])c1ccc(CSC2=C(c3ccc(Cl)cc3)S/C(=C3\SC(SCc4ccc([N+](=O)[O-])cc4)=C(c4ccc(Cl)cc4)S3)S2)cc1 ?
Data returned: > 100 µM (inactive)

Data request: I am curious: what GI50 value has been reported for CN(C)C(=O)Nc1cc2c3c(c1)CCCN3CCC2 ?
Data returned: > 10 µM (inactive)

Data request: I am curious: what GI50 value has been reported for COC(=O)c1cc(C#Cc2cc(OC)ccc2OC)ccc1OC ?
Data returned: 2.04 µM (inactive)

Data request: I am curious: what GI50 value has been reported for O=C(/C=C/c1ccc2c(c1)OCO2)CC(=O)C(=O)c1c[nH]c2ccccc12 ?
Data returned: 29.4 µM (inactive)

Data request: I am curious: what GI50 value has been reported for C=C(C)[C@@H](O)[C@H](O)C[C@H](C)C1CC[C@]2(C)C1=CC[C@@H]1[C@@]3(C)CC[C@@H](OC(C)=O)C(C)(C)[C@@H]3C[C@@H](OC3OC(COC(C)=O)C(O)C(O)C3O)[C@]12C (some centres undefined) ?
Data returned: 2.48 µM (inactive)

Data request: I am curious: what GI50 value has been reported for CC1(C)[C@@H]2C[C@H]1C(Cc1ccc(C[C@H]3c4cc(-c5ccccn5)ncc4[C@H]4C[C@@H]3C4(C)C)cc1)c1cc(-c3ccccn3)ncc12 (some centres undefined) ?
Data returned: 2.52 µM (inactive)

Data request: I am curious: what GI50 value has been reported for CCN1CC2(C)CCC(OC)C34C5CC6CCC(O)(C5C(=O)O6)C(C(O)C23)C14 (centres undefined) ?
Data returned: > 100 µM (inactive)

Data credit: ChEMBL document CHEMBL1201862
